Origin of measurements: patent US20180099931A1

# assay system: F508delCFTR (Homo sapiens, UniProt P13569, DEL508-508)
# Construct: expressed in transfected cells; host or cells: CFBE41o- human lung-derived epithelial cells (CFBE4lo-F508delCFTR-HRP), doxycycline-inducible
# Sequence (P13569 with tags, fused parts or gaps DEL508-508): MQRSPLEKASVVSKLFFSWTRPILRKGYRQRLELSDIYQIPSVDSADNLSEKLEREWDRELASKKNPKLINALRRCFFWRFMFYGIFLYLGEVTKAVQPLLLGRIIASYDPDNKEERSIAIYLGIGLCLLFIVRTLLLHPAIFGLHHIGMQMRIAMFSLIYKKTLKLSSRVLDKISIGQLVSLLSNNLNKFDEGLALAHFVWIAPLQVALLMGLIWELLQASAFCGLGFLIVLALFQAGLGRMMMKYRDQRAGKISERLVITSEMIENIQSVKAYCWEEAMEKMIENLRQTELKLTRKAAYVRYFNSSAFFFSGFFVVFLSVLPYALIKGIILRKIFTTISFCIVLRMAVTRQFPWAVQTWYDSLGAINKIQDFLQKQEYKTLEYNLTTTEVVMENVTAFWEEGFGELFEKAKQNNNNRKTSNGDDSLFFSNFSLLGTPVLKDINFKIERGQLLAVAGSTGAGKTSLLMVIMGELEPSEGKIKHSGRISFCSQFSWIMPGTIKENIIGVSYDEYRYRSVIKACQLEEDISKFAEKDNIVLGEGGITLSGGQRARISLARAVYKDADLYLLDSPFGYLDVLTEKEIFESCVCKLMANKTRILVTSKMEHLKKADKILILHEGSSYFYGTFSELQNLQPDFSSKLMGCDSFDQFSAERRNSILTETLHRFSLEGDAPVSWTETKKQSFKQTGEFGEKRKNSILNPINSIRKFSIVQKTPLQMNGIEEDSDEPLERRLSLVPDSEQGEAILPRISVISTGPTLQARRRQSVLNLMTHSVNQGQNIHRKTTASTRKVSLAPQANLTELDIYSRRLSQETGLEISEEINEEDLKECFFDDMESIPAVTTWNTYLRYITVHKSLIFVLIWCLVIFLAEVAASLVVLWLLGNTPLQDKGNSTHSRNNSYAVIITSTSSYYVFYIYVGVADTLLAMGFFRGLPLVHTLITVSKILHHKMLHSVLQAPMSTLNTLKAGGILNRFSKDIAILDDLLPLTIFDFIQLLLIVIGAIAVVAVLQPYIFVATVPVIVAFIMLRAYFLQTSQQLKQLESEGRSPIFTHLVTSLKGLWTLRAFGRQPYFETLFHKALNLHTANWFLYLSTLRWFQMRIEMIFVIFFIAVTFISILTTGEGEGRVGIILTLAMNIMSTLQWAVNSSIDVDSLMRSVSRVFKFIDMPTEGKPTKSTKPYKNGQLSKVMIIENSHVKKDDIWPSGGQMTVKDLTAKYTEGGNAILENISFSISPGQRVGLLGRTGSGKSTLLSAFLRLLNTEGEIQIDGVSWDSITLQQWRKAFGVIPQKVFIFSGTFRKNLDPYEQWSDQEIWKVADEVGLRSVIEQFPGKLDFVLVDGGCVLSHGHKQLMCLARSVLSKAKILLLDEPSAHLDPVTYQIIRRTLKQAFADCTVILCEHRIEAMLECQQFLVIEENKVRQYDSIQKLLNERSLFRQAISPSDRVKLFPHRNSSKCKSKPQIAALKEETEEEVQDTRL
# experimental details: Cell Surface Expression-Horse Radish Peroxidase (CSE-HRP) Assay
# Type: cell-based
# settings: CSE-HRP; with co-corrector (2 μM of 3-[(2R,4R)-4-({[1-(2,2-difluoro-1,3-benzodioxol-5-yl)cyclopropyl]carbonyl}amino)-7-methoxy-3,4-dihydro-2H-chromen-2-yl]benzoic acid); read-out: EC50 (with co-corrector)
pEC50: −log10 of the molar value.
pEC50 values by entry

INSERT INTO results (molecule, obs_value) VALUES
  ('COc1ccc(-c2ccc(C#N)cc2)cc1CN[C@H]1[C@H](C(C)(C)C)[C@@H](C(=O)O)N(C(=O)C2CCCCC2)[C@H]1c1ccccc1', '5.00 to 6.00');

query: Quick one: pEC50 of `COc1ccc(C2CCCC2)cc1CN[C@H]1[C@H](C(C)(C)C)[C@@H](C(=O)O)N(C(=O)C2CCCCC2)[C@H]1c1ccccc1` ?
result: > 6.00

query: Quick one: pEC50 of COc1ccc(C(F)(F)F)cc1CN[C@H]1[C@H](C(C)(C)C)[C@@H](C(=O)O)N(C(=O)C2Cc3ccccc3CO2)[C@H]1c1ccccc1 (stereo partly drawn) ?
result: 5.00 to 6.00

query: Quick one: pEC50 of `CC(C)OC(=O)N1[C@H](C(=O)O)[C@@H](C(C)(C)C)[C@H](NCCc2ccccc2)[C@@H]1c1ccccc1` ?
result: 5.00 to 6.00

query: Quick one: pEC50 of `COc1ccc(-c2cnccc2C)cc1CN[C@H]1[C@H](C(C)(C)C)[C@@H](C(=O)O)N(C(=O)C2CCCCC2)[C@H]1c1ccccc1` ?
result: 5.00 to 6.00

query: Quick one: pEC50 of `COc1ccc(C2(C)CCC2)cc1CN[C@H]1[C@H](C(C)(C)C)[C@@H](C(=O)O)N(C(=O)[C@@H]2CCCCO2)[C@H]1c1ccccc1C(C)C` ?
result: > 6.00

query: Quick one: pEC50 of COc1ccc(C(C)(C)C)cc1CN[C@H]1[C@H](C(C)(C)C)[C@@H](C(=O)O)N(C(=O)C(C)n2cc(Cl)c(C)n2)[C@H]1c1ccccc1 (single isomer, unassigned) [III-182] ?
result: 5.00 to 6.00

query: Quick one: pEC50 of COc1cc(C(F)(F)F)ccc1CN[C@H]1[C@H](C(C)(C)C)[C@@H](C(=O)O)N(C(=O)C2CCCC(F)(F)C2)[C@H]1c1cccnc1OC (relative stereo) ?
result: > 6.00

query: Quick one: pEC50 of `CC(C)(C)[C@H]1[C@H](NCc2cccc(C(F)(F)F)c2)[C@H](c2ccccc2)N(C(=O)C2CCCCC2)[C@@H]1C(=O)O` ?
result: 5.00 to 6.00

query: Quick one: pEC50 of COc1ccc(C2CC3CCC2C3)cc1CN[C@H]1[C@H](C(C)(C)C)[C@@H](C(=O)O)N(C(=O)C2CCCCC2)[C@H]1c1ccccc1 (stereo partly drawn) ?
result: > 6.00

query: Quick one: pEC50 of COc1ncc(C(F)(F)F)cc1CN[C@@H]1[C@@H](C(C)(C)C)[C@H](C(=O)O)N(C(=O)C2CCCCC2)[C@@H]1c1cccnc1N(C)C (racemic) ?
result: 5.00 to 6.00

query: Quick one: pEC50 of COc1ccc(C(C)(C)C)cc1CN[C@H]1[C@H](C(C)(C)C)[C@@H](C(=O)O)N(C(=O)C2Cc3ccccc3S2)[C@H]1c1ccccc1 (stereo partly drawn) ?
result: > 6.00
